System: P. falciparum 3D7 growth, pLDH absorbance
Assay: blood-stage malaria parasite growth potency – strain 3D7, dose response (AID 2305)
Bucketed by reported IC50, buckets being low interval = under 600 nM, middle interval = from 600 nM up to 900 nM, high interval = 900 nM and over

As a guide, the following entries are already answered.
[[record]]
molecule = "Cc1cc(NC(=O)c2cccs2)ccc1OC1CCN(Cc2ccc(F)cc2)C1 (stereo not drawn)"
class_assignment = "middle interval"

[[record]]
molecule = "CCOc1ccccc1NC(=O)Nc1ccc2c(c1)CCN(C1CCC1)CC2"
class_assignment = "high interval"


Now take the following molecule into account.
Bin this entry: "N#Cc1cncc(-c2nc3c(N4CCC(Cc5ccccc5)CC4)cccc3n2CCNCc2ccccc2)c1"
low interval

====

Test system: P. falciparum 3D7 growth, pLDH absorbance
Assay: blood-stage malaria parasite growth potency – strain 3D7, dose response (AID 2305)
So I've got a bunch of compounds here, and I need their IC50 values.
Answers are plain numbers, in nM.

Example entries begin here.
[[record]]
compound = "N#Cc1ccc(N2C[C@@H](OCc3ccccc3)C[C@H]2C(=O)NCCC(c2ccccc2)c2ccccc2)c2ccccc12"
experimental_system = "P. falciparum 3D7 growth, pLDH absorbance"
endpoint_value = 860

[[record]]
compound = "O=C(NC1CCC(N2CCC(c3nc4ccccc4s3)CC2)CC1)c1cc2ccccc2[nH]1 (centres undefined)"
experimental_system = "P. falciparum 3D7 growth, pLDH absorbance"
endpoint_value = 930

[[record]]
compound = "COc1cc2c(cc1N(C(C)C)S(=O)(=O)c1sc3ccc(Cl)cc3c1C)CCNCC2"
experimental_system = "P. falciparum 3D7 growth, pLDH absorbance"
endpoint_value = 1050

[[record]]
compound = "CC(=O)Nc1cccc(CNCc2ccc(-c3cnc(N4CCCC(C)(C)C4)nc3)cc2)c1"
experimental_system = "P. falciparum 3D7 growth, pLDH absorbance"
endpoint_value = 820


Below are 5 compounds. Give each one its IC50.
1. CS(=O)(=O)CCNCc1ccc(-c2cc3c(Nc4ccc(OCc5cccc(F)c5)c(Cl)c4)ncnc3s2)[nH]1
2. FC(F)(F)c1cccc(CCNc2nccc(NCc3ccccc3Cl)n2)c1
3. COc1cc(C(=O)Nc2cccc(-c3cn4ccc(C)cc4n3)c2)cc(OC)c1OC
4. CCNCc1ccc(-c2cc3ncnc(Nc4ccc(OCc5cccc(F)c5)c(Cl)c4)c3s2)[nH]1
5. COc1cc2c(cc1OC)CN(CCc1ccc(NC(=O)c3cc4cc(Cl)ccc4[nH]3)cc1)CC2

1. 840
2. 1170
3. 760
4. 110
5. 1020

====

Tested on: P. falciparum 3D7 growth, pLDH absorbance
Test: blood-stage malaria parasite growth potency – strain 3D7, dose response (AID 2305)
So I've got a bunch of compounds here, and I need their pIC50 values.
Numbers only, as −log10 of the molar value.

Below are 7 compounds. Give each one its pIC50.
1. COCC(C)n1c(SCC(=O)Nc2cc(C(F)(F)F)ccc2Cl)nc2ccccc2c1=O (centres undefined)
2. O=C(Nc1ccccc1)N(Cc1cccc(-c2cccc(CNCc3ccc4c(c3)OCO4)c2)c1)C1CCN(Cc2ccccc2)CC1
3. COc1cc2c(cc1S(=O)(=O)c1ccc(NC(=O)Nc3ccc(F)cc3)cc1)CCN(C)CC2
4. O=S(=O)(ON=C1CCc2ccccc21)c1ccc(Cl)cc1
5. O=C(CSc1ccccn1)Nc1c(F)cccc1F
6. COc1cc(NC(=O)c2cc([N+](=O)[O-])ccc2NC(=O)CNC2CCCCC2C)cc(OC)c1 (centres undefined)
7. CCCC(C)c1cnc2nc(N)nc(N)c2c1C (centres undefined)

1. 6.89
2. 6.55
3. 6.33
4. 5.88
5. 5.92
6. 5.76
7. 7.52

Below are 4 compounds. Give each one its pIC50.
1. Cc1cccc2[nH]c(=O)c([N+](=O)[O-])c(O)c12
2. CCNc1cc(C)nc(Nc2ccc(NC(=O)c3ccc(OC)c(OC)c3)cc2)n1
3. CCOc1cc(C)ccc1C1CCN(CCCCNC(=O)c2ccc(-c3ccc(C(F)(F)F)cn3)cc2)CC1
4. CCc1ccccc1-c1csc(C(=O)NCC2CCN(Cc3ccc(C(C)(C)C)cc3)C2)c1 (centres undefined)

1. 6.04
2. 5.97
3. 6.10
4. 5.94

Below are 6 compounds. Give each one its pIC50.
1. CS(=O)(=O)Nc1ccc(-c2ccc3ccnc(N)c3c2)cc1
2. CCC(C)C#Cc1c(C)nc(N)nc1N (centres undefined)
3. COc1cc(Cc2cnc(N)nc2N)cc(OCCCC(=O)O)c1OC
4. O=C(NCc1cc2c(cc1Cl)OCO2)c1ccc(CNC2CCN(Cc3ccccc3)CC2)cc1
5. COc1ccc(Cn2c(=O)[nH]c3cc(C(=O)NC4CCN(Cc5ccccc5)CC4)ccc3c2=O)cc1
6. Nc1nc(N)c2c(n1)CCc1cc(Br)ccc1-2

1: 6.21; 2: 6.59; 3: 5.93; 4: 6.08; 5: 6.12; 6: 5.95

Below are 6 compounds. Give each one its pIC50.
1. CCc1nc(N)nc(N)c1CCCOc1ccccc1Cl
2. Cc1cc(N[C@@H](Cc2ccccc2)C(=O)NCc2cccs2)nc(NCCc2ccc(F)cc2)n1
3. Nc1nc(N)c2cc(N(Cc3ccccc3)Cc3ccccc3)ccc2n1
4. Cc1nc(N)nc(N)c1-c1ccc(Br)cc1
5. COc1ccc(-c2ccc(NC(=O)c3ccc(C#N)cc3)cc2)cc1CN(C)CCO
6. COc1ccc(-c2cccc(NC(=O)c3ccc(F)cc3)c2)cc1CNC(C)C

1. 7.00
2. 6.07
3. 6.21
4. 6.64
5. 6.20
6. 5.86

# credit: PubChem BioAssay AID2305
